Test system: RARg homodimer (NR concentration 270 nM)
Experiment: PBM binding z-score (relative to random genomic background probes); higher = stronger binding; sequences stand for … in GC…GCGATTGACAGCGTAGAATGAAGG
# key: entry, value: PBM binding z-score
Lab note: record the figure alone, no unit after it.

**Query** Consider the sequence GGAACGAGGGCAAGTTGACAGCAGAGTTTGATGG . State its measured PBM binding z-score.
**Result** 2.41

**Query** Please report PBM binding z-score for the following sequence: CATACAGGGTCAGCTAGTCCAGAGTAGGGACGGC
**Result** 4.24

**Query** Please give measured PBM binding z-score of the following entry: CGTCCAAGGTCATAGGAGGTCAGTGTAGACAGAT
**Result** 7.24

====

Examples of sequences with documented PBM binding z-score follow.
Tested on: THRa homodimer (NR concentration 90 nM)
Experiment: PBM binding z-score (relative to random genomic background probes); higher = stronger binding; sequences stand for … in GC…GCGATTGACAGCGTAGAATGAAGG
// return just the number, without any unit appended

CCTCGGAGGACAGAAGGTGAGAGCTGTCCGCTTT ... -0.514
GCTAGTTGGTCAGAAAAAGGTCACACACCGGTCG ... 1.44
TCTGCTAGGTCAGTTGTTCAGCTAACGAGCTGCC ... 0.158

**Query** Identify measured PBM binding z-score associated with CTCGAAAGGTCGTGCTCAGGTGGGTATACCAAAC
**Result** 0.504

**Query** Answer with the recorded PBM binding z-score of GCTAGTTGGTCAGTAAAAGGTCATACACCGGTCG only.
**Result** 1.35

====

In this section we review reported PBM binding z-score values for a set of sequences.
Test system: LXRb:RXRa (NR concentration 270 nM, RXRa partner concentration 90 nM)
Assay: PBM binding z-score (relative to random genomic background probes); higher = stronger binding; sequences stand for … in GC…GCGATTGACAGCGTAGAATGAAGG

Below: 8 sequences and their reported PBM binding z-score.
TCGAGTAGGTTAGGGACATTCAGAATGGCGTCGA ... -0.146
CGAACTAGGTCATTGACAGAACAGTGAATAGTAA ... 2
CCTAGCAGGCCAATCTGGGGCACTCAAGGCTTGA ... -0.768
CCGACTGGGGCAAAGGTTACCTTACTCAGTACGA ... 1.98
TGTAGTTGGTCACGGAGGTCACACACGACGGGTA ... 3.09
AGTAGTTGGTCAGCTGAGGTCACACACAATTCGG ... 3.55
CGAACTAGGTCATCCAGGACAGTGCATACATTGA ... 2.15
ACTATTAGTTGACTTACGGCAACCGATACGACGC ... 0.412

**Query** Give the reported value of PBM binding z-score for this record: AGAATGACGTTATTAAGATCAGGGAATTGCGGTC
**Result** -0.6

**Query** Report PBM binding z-score, nothing else, for this sequence: GATACAGGGTCAAGGCTAGAGTACGCGTATTGAT
**Result** 3.78

**Query** Given CCGAGTAGGTTATGGGGCATTCAAGCAACGGTGA , respond with its PBM binding z-score.
**Result** 0.732

**Query** Specify PBM binding z-score for ACCGAAAGGTCGTGAGGTGAGTATACAGAAAGGC and stop.
**Result** 3.02

**Query** Read the entry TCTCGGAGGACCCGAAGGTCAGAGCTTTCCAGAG and write its reported PBM binding z-score.
**Result** 0.902

**Query** Tell me measured PBM binding z-score for CCAGACAGGTGAAAGGCAACTCAGTCTGGTACGC please.
**Result** 0.0509

**Query** Supply measured PBM binding z-score of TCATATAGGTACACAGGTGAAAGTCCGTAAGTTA in your reply.
**Result** 1.09

Ref: the supplement of paper PMC6555819
